Data credit: patent US20210395344A1

# tested system: SARS-CoV-2 S1 (antigen of the Carterra SPR kinetics) (SARS-CoV-2, UniProt P0DTC2 16-685)
# experimental details: Carterra SPR
Reported log10 of kon is given for each of the following binders.
Recall that a logarithmic scale is used here: each number is log10 of kon in M⁻¹ s⁻¹.

binder	observed result
1-24 (antibody, V domains shown, also called variant 1-24) VH: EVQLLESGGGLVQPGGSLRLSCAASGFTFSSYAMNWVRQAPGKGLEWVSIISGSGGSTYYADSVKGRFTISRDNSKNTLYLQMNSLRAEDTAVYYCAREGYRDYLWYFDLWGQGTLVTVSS VL: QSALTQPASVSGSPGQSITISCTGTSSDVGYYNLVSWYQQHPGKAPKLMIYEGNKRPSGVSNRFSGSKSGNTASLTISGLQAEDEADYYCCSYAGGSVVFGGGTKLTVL	8.29
1-29 (antibody, V domains shown, also called variant 1-29) VH: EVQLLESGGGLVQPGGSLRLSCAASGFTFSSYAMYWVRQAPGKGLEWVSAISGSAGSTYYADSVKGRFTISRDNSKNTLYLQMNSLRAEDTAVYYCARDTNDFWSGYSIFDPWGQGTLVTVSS VL: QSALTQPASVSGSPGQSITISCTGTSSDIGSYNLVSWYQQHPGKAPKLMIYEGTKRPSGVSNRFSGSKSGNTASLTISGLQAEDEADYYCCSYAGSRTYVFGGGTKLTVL	2.73
1-32 (antibody, V domains shown, also called variant 1-32) VH: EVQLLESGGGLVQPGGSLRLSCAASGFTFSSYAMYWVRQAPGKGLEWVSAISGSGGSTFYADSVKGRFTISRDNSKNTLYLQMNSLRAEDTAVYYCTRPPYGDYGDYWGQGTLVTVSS VL: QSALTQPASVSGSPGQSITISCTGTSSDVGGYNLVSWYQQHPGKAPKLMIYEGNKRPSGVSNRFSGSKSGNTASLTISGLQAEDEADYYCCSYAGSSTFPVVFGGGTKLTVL	6.74
1-30 (antibody, V domains shown, also called variant 1-30) VH: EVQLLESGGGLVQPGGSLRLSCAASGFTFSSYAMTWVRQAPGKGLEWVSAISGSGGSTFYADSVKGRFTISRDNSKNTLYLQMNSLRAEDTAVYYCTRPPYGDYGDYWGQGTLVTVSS VL: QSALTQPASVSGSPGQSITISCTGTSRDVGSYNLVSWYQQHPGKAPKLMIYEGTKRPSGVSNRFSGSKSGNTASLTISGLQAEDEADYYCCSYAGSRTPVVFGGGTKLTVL	4.64

Lab note: next binder to report on.
## Task Identify log10 of kon associated with the binder 1-17 (antibody, V domains shown, also called variant 1-17) VH: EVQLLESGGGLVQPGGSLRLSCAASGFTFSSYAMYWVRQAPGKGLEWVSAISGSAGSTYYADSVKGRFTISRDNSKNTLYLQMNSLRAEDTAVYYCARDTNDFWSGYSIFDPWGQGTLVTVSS VL: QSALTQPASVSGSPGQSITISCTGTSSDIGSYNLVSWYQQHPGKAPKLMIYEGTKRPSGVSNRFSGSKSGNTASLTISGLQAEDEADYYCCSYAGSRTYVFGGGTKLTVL
## Result 8.59
